TARGET DESC: GPR17 (Homo sapiens, UniProt Q13304)
Sequence (Q13304 whole entry): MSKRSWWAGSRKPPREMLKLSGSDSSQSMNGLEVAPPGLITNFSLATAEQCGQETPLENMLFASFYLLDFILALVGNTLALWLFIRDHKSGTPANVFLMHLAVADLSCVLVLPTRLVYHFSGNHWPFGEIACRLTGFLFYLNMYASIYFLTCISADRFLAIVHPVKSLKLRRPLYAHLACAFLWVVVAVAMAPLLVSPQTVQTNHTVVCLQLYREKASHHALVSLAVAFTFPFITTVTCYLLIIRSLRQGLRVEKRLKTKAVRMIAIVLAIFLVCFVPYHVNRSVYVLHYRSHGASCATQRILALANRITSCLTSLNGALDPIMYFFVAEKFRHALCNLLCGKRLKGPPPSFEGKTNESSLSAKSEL
ASSAY: Calcium mobilization functional assay (GPR17 Ca2+ assay)
Format: cell-based
Parameters: host or cells: Flp-In T-REx CHO
SETTINGS: CHO hGPR17 cells, inhibition of 50 nM MDL29,951, Calcium 5 dye, FLIPR; read-out: Ca2+ assay pIC50 (converted)
Can you tell me IC50 for the items I'm about to list?

O=S(=O)(Nc1cc(F)c(OC(F)F)cc1F)c1c[nH]c2cc(Cl)ccc12 : < 3.16 nM
O=S(=O)(Nc1cc(F)c(F)cc1F)c1c[nH]c2cc(C(F)(F)F)ccc12 : > 31.6 nM
N#Cc1ccc2c(S(=O)(=O)Nc3cc(F)c(F)cc3F)c[nH]c2c1 : > 31.6 nM

Find the measured IC50 of O=S(=O)(Nc1nc(F)c(Cl)cc1F)c1c[nH]c2cc(Cl)ccc12 and report it. 3.16 to 31.6 nM

----------
TARGET DESC: GPR17 (Homo sapiens)
ASSAY: Calcium mobilization functional assay (GPR17 Ca2+ assay)
Format: cell-based
Design: host or cells: Flp-In T-REx CHO
SETTINGS: CHO hGPR17 cells, inhibition of 50 nM MDL29,951, Calcium 5 dye, FLIPR; read-out: Ca2+ assay pIC50 (converted)
Provide the recorded IC50 for the entries that follow.

Worked examples, 5 compounds total:
N#CCc1ccc(NS(=O)(=O)c2c[nH]c3cc(Cl)ccc23)c(F)c1 : 3.16 to 31.6 nM
O=S(=O)(Nc1cccc2nsnc12)c1c[nH]c2ccccc12 : > 31.6 nM
O=S(=O)(Nc1cc(F)c(Cl)cc1F)c1c[nH]c2cc(Cl)ccc12 : 3.16 to 31.6 nM
O=S(=O)(Nc1ccc(Br)c(Cl)n1)c1c[nH]c2cc(Cl)ccc12 : 3.16 to 31.6 nM
N#Cc1cc(F)c(NS(=O)(=O)c2c[nH]c3c(Cl)cccc23)cc1F : > 31.6 nM

Here are 7 compounds. What values of IC50 were reported for them?
1. N#Cc1ccc(NS(=O)(=O)c2c[nH]c3cc(Cl)ccc23)cc1Cl
2. Cc1ccc2c(S(=O)(=O)Nc3ccc(Br)cc3F)c[nH]c2c1
3. N#Cc1ccc2c(S(=O)(=O)Nc3ccc(Cl)cc3F)c[nH]c2c1
4. COc1nc(NS(=O)(=O)c2csc3cc(Cl)ccc23)c(F)cc1Cl
5. O=S(=O)(Nc1ccc(Br)c2c1OC(F)(F)O2)c1c[nH]c2cc(Cl)ccc12
6. O=S(=O)(Nc1ccc2ncsc2c1)c1c[nH]c2cc(Cl)ccc12
7. CS(=O)(=O)c1ccc2c(S(=O)(=O)Nc3ccc(C#N)cc3)c[nH]c2c1

1. 3.16 to 31.6 nM
2. 3.16 to 31.6 nM
3. > 31.6 nM
4. 3.16 to 31.6 nM
5. > 31.6 nM
6. > 31.6 nM
7. 3.16 to 31.6 nM

Give one value of IC50 per listed compound.
1. Cc1cc(F)c(NS(=O)(=O)c2c[nH]c3cc(Cl)ccc23)nc1F
2. O=S(=O)(Nc1ccc(I)cc1F)c1c[nH]c2cc(Cl)ccc12
3. COc1ccc2c(S(=O)(=O)Nc3cc4c(cc3F)OC(F)(F)O4)c[nH]c2c1
4. N#Cc1cc(F)c(NS(=O)(=O)c2c[nH]c3c4c(ccc23)CCC4)cc1F
5. N#Cc1ccc(NS(=O)(=O)c2csc3cc(Cl)ccc23)cc1
6. O=S(=O)(Nc1ccc(F)cc1F)c1c[nH]c2cc(Cl)ccc12

["< 3.16 nM", "< 3.16 nM", "> 31.6 nM", "< 3.16 nM", "3.16 to 31.6 nM", "> 31.6 nM"]
